# test target: C277S (SEQ ID NO: 424) (Thermotoga maritima, UniProt Q9WXT2, C277S)
# Construct: made in house; host or cells: E. coli
# Type: biochemical
# condition summary: 100 mM ester, 60 mM H2O2, 40 ppm enzyme, 95 mM phosphate pH 7.2, 37° C.
value kind: Maximum Peracetic Acid (PAA) (ppm), C277S (SEQ ID NO: 424)
Give just the numeric value; ppm need not be written.

Solved entries (count: 2):
>>> experimental_result("CC(=O)OC[C@H]1OC=C[C@@H](OC(C)=O)[C@@H]1OC(C)=O [Tri-O-acetyl glucal]")
1047
>>> experimental_result("CC(=O)OCCOCCOC(C)=O [Diethylene glycol diacetate]")
469

Okay, now this compound:
QUERY: Please give the measured Maximum Peracetic Acid (PAA) (ppm), C277S (SEQ ID NO: 424) for this compound: C=CC(COC(C)=O)OC(C)=O (stereo not drawn) [3,4-diacetoxy-1-butene]
RESULT: 2281
